# MEASUREMENT DESCRIPTION: inhibition of PEG-3 promoter activity – cell-based, HeLa, luciferase luminescence, primary screen (AID 588405)
# ASSAY CONTEXT: HeLa PEG-Prom luciferase reporter, overnight, at 20 µM, hits give high values
The campaign covered roughly 360,000 compounds. About 6,200 (1.7%) were called active. The sample as a whole holds a higher share of actives than the screen did.

COMPOUND	inhibition [%]
O=c1c2c3c(sc2n(CCN2CCCC2)c(=O)n1Cc1ccccc1)CCCCC3	-15
N#C/C(=C(/O)COC(=O)COc1ccc(Cl)cc1)c1nc2ccccc2[nH]1	71.2
CCC(=O)N1CCC(C)(C(=O)Nc2cc(OC)c(OC)c(OC)c2)C1 (stereo not given)	-5.88
Oc1ccc2ccccc2c1N=Nc1nccs1	97.5
O=C(Nc1ccc(F)cc1)c1ccc(S(=O)(=O)NCc2cccnc2)cc1	-20.7
Cc1cc(C)cc(NS(=O)(=O)Cc2ccccc2)c1	-13.5
S=C(NCCCc1cnc[nH]1)NCCCN(Cc1ccc(Cl)c(Cl)c1)c1ccc(Br)cn1	98.4
Cc1cc(=O)oc2c3c(cc(OCC(=O)NCC(O)c4ccccc4)c12)OC(C)(C)CC3 (stereo not given)	12.4
FC(F)(F)Oc1ccccc1C(c1nnnn1C1CCCCC1)N1CCN(C/C=C/c2ccccc2)CC1 (stereo not given)	-12.9
NCCCNC(=S)NCCCN(Cc1ccc(Cl)cc1)c1ccc(Br)cn1	85.8
O=C(CNC(=O)Cc1ccccc1)N=Nc1c(O)[nH]c2ccc(Br)cc12	-7.31
CCCN1CCN(C(=O)Cn2ncc3ccccc32)CC1	6.83
CC1(Cc2ccccc2C#N)C(=O)Nc2ccc(-c3ccc4[nH]ccc4c3)cc21 (stereo not given)	14.4
Cc1cccc(N2C(=O)SC(SC(=Nc3ccccc3)Nc3ccccc3)C2=O)c1 (stereo not given)	-30
NC(Cc1ccccc1)c1csc(Nc2cc(Oc3ccccc3)ncn2)n1 (stereo not given)	54.6

* * *

# MEASUREMENT DESCRIPTION: inhibition of PEG-3 promoter activity – cell-based, HeLa, luciferase luminescence, primary screen (AID 588405)
# ASSAY CONTEXT: HeLa PEG-Prom luciferase reporter, overnight, at 20 µM
Out of some 360,000 compounds screened, about 6,200 (1.7%) were called active.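 Rule for the calls: active = inhibition of at least 50% at 20 µM; inactive = the rest.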 The sample holds actives, similar compounds and a random draw of the others, so the mix is not that of the screen.
Possible outcomes: 1.0 = active, 0.0 = inactive

SMILES DATA	CLASS ASSIGNMENT
Cc1cc(C)nc(S/C=C/C(=O)c2ccccc2)n1	1.0
Cc1cnc(C(=O)OCC(=O)Nc2ccc(Cl)cc2Cl)cn1	0.0
O=C(NNC(=O)c1ccccc1O)c1ccccc1O	0.0
CCOC(=O)c1c(C)[nH]c(C)c1S(=O)(=O)NCCCc1ccco1	0.0
O=C(COC(=O)c1ccc(O)cc1O)NC(=O)c1ccccc1	0.0

* * *

# MEASUREMENT DESCRIPTION: inhibition of PEG-3 promoter activity – cell-based, HeLa, luciferase luminescence, primary screen (AID 588405)
# ASSAY CONTEXT: HeLa PEG-Prom luciferase reporter, overnight, at 20 µM, hits give high values
Among all 360,000 compounds or so, about 6,200 (1.7%) were called active. Shown is part of a subset that was picked to be rich in actives.

SMILES DATA	MEASUREMENT UNITS	inhibition
Cn1c(=O)c2c(-c3cccc(Br)c3)c(C#N)c(N)nc2n(C)c1=O	%	7.56
Cc1ccc(NS(=O)(=O)c2cc3c(cc2Br)NC(=O)CO3)cc1C	%	24.2
CN(C)S(=O)(=O)N1CCN(c2ccc([N+](=O)[O-])cc2)CC1	%	14.5
